target-entity: T1, LRRC7, Q96NW7
T1 sequence (Q96NW7 1440-1537, limits assumed, looked up): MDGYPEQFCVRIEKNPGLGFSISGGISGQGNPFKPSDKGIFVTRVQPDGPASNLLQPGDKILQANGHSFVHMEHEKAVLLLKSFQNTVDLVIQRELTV
method: holdup assay
Set-up: key: below the threshold = too weak to quantify, mostly under pKd 3.1 to 4
experimental-conditions: plain residues with an end cap or a label only (N-terminal biotin on a linker: ttds)
assay-metric: pKd

SVWLRKETRV [CYSLTR2, Q9NS75] = 3.65
IDNDTESTAL [ARHGAP17, Q68EM7] = below the threshold
PKTPPTDTSV [KIR3DL3, Q8N743] = below the threshold
RSLEEEESQL [GRASP, Q7Z6J2] = below the threshold

# input for lookup
Tell me measured pKd for GQDSREETQL [KCNT2, Q6UVM3] please.
below the threshold

Origin of the recorded values: paper PMC9482650
